- Test system: self-synthesis of adrenocortical hormone
- Test details: Increase degree of cortical hormone (cortisol, corticosterone) in blood serum after ACTH stimulation, ELISA
- Type: in vivo
- Assay setup: Example 10; Beagle dogs, 2ED50; ratio of peak value to base value, dexamethasone baseline, 1 h after ACTH
- Experimental: Male Beagle dogs (10±2 kg) were selected as an experimental animal. After administration, the contents of corticosterone and cortisol in the blood serum of the Beagle dogs were determined by the ELISA kit and the enzyme-labelled instrument. […] One hour after administration of ACTH, both corticosterone and cortisol levels in the blood serum of the Beagle dogs were determined, and the ratio of the peak value to the base value of the cortex levels was calculated. […]
Readout type: Increase degree of corticosterone

compound="CCOC(=O)c1cncn1[C@H](C)c1ccccc1 [Etomidate, reference compound]" observed_value=2.53
compound="COCCOC(=O)c1cncn1[C@H](C)c1ccccc1 [Compound I]" observed_value=11.46
compound="COCCOC(=O)c1cncn1[C@@H](C)c1ccccc1 [Compound IV]" observed_value=1.19
compound="COCCOC(=O)c1cncn1C(C)c1ccccc1 (racemic) [Compound V]" observed_value=3.18

* * *

- System: Male SD rats
- Test details: Onset time, last time, palinesthesia time and adverse effects at 2ED50 via the rat tail vein
- Assay type: in vivo
- Assay setup: Example 9, 2ED50 via tail vein, recovery to full recovery of body-righting reflex
Counter-ions that a name gives are not always drawn.
Readout type: Palinesthesia time (min)

compound="COCCOC(=O)c1cncn1[C@H](C)c1ccccc1 [Hydrochloride of Formula (I) compound]" units_of_measure=min observed_value=5.6
compound="COCCOC(=O)c1cncn1[C@H](C)c1ccccc1 [Trifluoroacetate of Formula (I) compound]" units_of_measure=min observed_value=8.2
compound="CCOC(=O)c1cncn1[C@H](C)c1ccccc1 [Etomidate, reference compound]" units_of_measure=min observed_value=5.1
compound="COCCOC(=O)c1cncn1[C@H](C)c1ccccc1 [Hydrobromide of Formula (I) compound]" units_of_measure=min observed_value=5.8

* * *

- System: Male SD rats
- Test details: ED50 by the sequential method, extinction of rat body-righting reflex
- Assay type: in vivo
- Assay setup: Rattus norvegicus, Example 8, compounds in DMSO, etomidate as Etomidate-Lipuro, extinction of body-righting reflex ≥30 s, read-out: 50% effective dose (ED50)
Readout type: ED50 (mg/kg)

compound="COCCOC(=O)c1cncn1C(C)c1ccccc1 (racemic) [Compound V]" readout_type=ED50 observed_value=10.4
compound="COCCOC(=O)c1cncn1[C@H](C)c1ccccc1 [Compound I]" readout_type=ED50 observed_value=2.1
compound="CCOC(=O)c1cncn1[C@H](C)c1ccccc1 [Etomidate, reference compound]" readout_type=ED50 observed_value=1.14
compound="COCCOC(=O)c1cncn1[C@@H](C)c1ccccc1 [Compound IV]" readout_type=ED50 observed_value=7.46

* * *

Examples of compounds with documented Increase degree of cortisol follow.
- Test system: self-synthesis of adrenocortical hormone
- Test details: Increase degree of cortical hormone (cortisol, corticosterone) in blood serum after ACTH stimulation, ELISA
- Type: in vivo
- Assay setup: Example 11; Beagle dogs, 2ED50; ratio of peak value to baseline, dexamethasone baseline, 1 h after ACTH
Counter-ions that a name gives are not always drawn.
Readout type: Increase degree of cortisol

compound="COCCOC(=O)c1cncn1[C@H](C)c1ccccc1 [Trifluoroacetate of Formula (I) compound]" observed_value="26.14 ± 13.89"
compound="COCCOC(=O)c1cncn1[C@H](C)c1ccccc1 [Hydrobromide of Formula (I) compound]" observed_value="29.14 ± 11.86"
compound="CCOC(=O)c1cncn1[C@H](C)c1ccccc1 [Etomidate, reference compound]" observed_value="2.46 ± 0.87"
compound="COCCOC(=O)c1cncn1[C@H](C)c1ccccc1 [Hydrochloride of Formula (I) compound]" observed_value="25.36 ± 14.77"
